Tested on: 005B
Parameters: 14-day clonogenic growth inhibition assay, human cancer cell line panel
Conditions: 14-day clonogenic assay; inhibitor; read-out: Table S1. IC50 of CCT271850 determined by MTT and clonogenic assays (CA). / All cell lines were tested at least 2 times. / 14-day CA
Measurement Type: IC50
I'd appreciate it if you wrote the number followed by its unit.

Query :: Which IC50 is reported with 005B for this entry: COc1cc(-c2cnn(C)c2)ccc1Nc1ncc2ccnc(N[C@@H](C)C(C)(C)C)c2n1 [34h, CCT271850] ?
Result :: 45 nM

---

System: Kuramochi
Design: MTT antiproliferation assay, absorbance at 570 nm, human cancer cell line panel
Details: 3-day MTT; inhibitor; read-out: Table S1. IC50 of CCT271850 determined by MTT and clonogenic assays (CA). / All cell lines were tested at least 2 times. / 3-day MTT
Measurement Type: IC50

Query :: Requested read-out: IC50. Entry: COc1cc(-c2cnn(C)c2)ccc1Nc1ncc2ccnc(N[C@@H](C)C(C)(C)C)c2n1 [34h, CCT271850]
Result :: 4.86 µM

---

System: SKOV3
Set-up: 14-day clonogenic growth inhibition assay, human cancer cell line panel
Conditions: 14-day clonogenic assay; inhibitor; read-out: Table S1. IC50 of CCT271850 determined by MTT and clonogenic assays (CA). / All cell lines were tested at least 2 times. / 14-day CA
Measurement Type: IC50 (µM)
Reply with just the number (in µM).

Query :: Which IC50 is reported with SKOV3 for this entry: COc1cc(-c2cnn(C)c2)ccc1Nc1ncc2ccnc(N[C@@H](C)C(C)(C)C)c2n1 [34h, CCT271850] ?
Result :: 0.058

---

Tested on: OVCAR3
Design: MTT antiproliferation assay, absorbance at 570 nm, human cancer cell line panel
Details: 3-day MTT; inhibitor; read-out: Table S1. IC50 of CCT271850 determined by MTT and clonogenic assays (CA). / All cell lines were tested at least 2 times. / 3-day MTT
pIC50: −log10 of the molar value.
Measurement Type: pIC50

Query :: Requested read-out: pIC50. Entry: COc1cc(-c2cnn(C)c2)ccc1Nc1ncc2ccnc(N[C@@H](C)C(C)(C)C)c2n1 [34h, CCT271850]
Result :: < 4.00

---

Tested on: TYK-Nu
Parameters: 14-day clonogenic growth inhibition assay, human cancer cell line panel
Conditions: 14-day clonogenic assay; inhibitor; read-out: Table S1. IC50 of CCT271850 determined by MTT and clonogenic assays (CA). / All cell lines were tested at least 2 times. / 14-day CA
Measurement Type: IC50 (µM)
Reply with just the number (in µM).

Query :: Which IC50 is reported with TYK-Nu for this entry: COc1cc(-c2cnn(C)c2)ccc1Nc1ncc2ccnc(N[C@@H](C)C(C)(C)C)c2n1 [34h, CCT271850] ?
Result :: 0.073

---

Tested on: CAL27
Parameters: MTT antiproliferation assay, absorbance at 570 nm, human cancer cell line panel
Conditions: 3-day MTT; inhibitor; read-out: Table S1. IC50 of CCT271850 determined by MTT and clonogenic assays (CA). / All cell lines were tested at least 2 times. / 3-day MTT
Measurement Type: pIC50
# pIC50: negative log10 of molar concentration; output just the value

Query :: Requested read-out: pIC50. Entry: COc1cc(-c2cnn(C)c2)ccc1Nc1ncc2ccnc(N[C@@H](C)C(C)(C)C)c2n1 [34h, CCT271850]
Result :: 6.64
